B1: tRNA (parent)
chain: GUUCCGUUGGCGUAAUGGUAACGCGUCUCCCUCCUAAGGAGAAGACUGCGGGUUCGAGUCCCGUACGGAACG

Variants of: B1
Assay: yeast fitness, log relative to wild type (ln ratio); higher = fitter; tRNA-Arg(CCU), competitive growth, 37 C, 1 M NaCl
Kindly return T if reported yeast fitness (ln) is no lower than -0.2; return F if it is lower.

A43C C66U A69G A70U: F
G1A G6U A43C A69G A70U: F
U2C C27U A43C C46U A70G C71U: T
U2C G6A C27U A43C C46U C66A A69G A70G C71U: T
G1A G6A C66U A69G A70G: F
U2G G6U C27U C46U C66U A69G: F
G1A U2C A43C C66A A69G A70G C71U: F
G1A G6U C66A C71U: T
G1A G6A C27U A70U C71U: F
G1A U2C G6A A43C C46U A70G: T

### Prompt Could you verify whether the entry G1A U2G G6U C27U C46U A69G C71U shows yeast fitness (ln) of no less than -0.2?
### Response F
